Tested on: MCF7
Test: Antiproliferative activity against human MCF7 cells after 48 hrs by MTT assay
Assay type: functional, cell-based
Conditions: MCF7, 48 h
assay readout: pIC50
Entry type: numeric. Quantity: pIC50, the -log10 of concentration in molar units.

Query Cc1ccc2[nH]cc(CNCc3cc(-c4ccc(F)c(C(F)(F)F)c4)no3)c2c1 yields pIC50 of 5.00

====

Answer each item with its documented logP.
Assay: Partition coefficient, logP of the compound
Type: physicochemical
Conditions: octanol/water
API note: the answer field is a bare number with no unit suffix.

The recorded logP for entry Cc1ccc2[nH]cc(CNCc3cc(-c4ccc([N+](=O)[O-])cc4)no3)c2c1 equals 3.83

So for COc1ccc(-c2cc(CNCc3c[nH]c4ccccc34)on2)cc1 , the logged logP turned out to be 3.5

Per the record, Cc1ccc2[nH]cc(CNCc3cc(-c4ccc(F)c(C(F)(F)F)c4)no3)c2c1 has logP of 4.85

Value of logP reported for the compound Fc1ccc(-c2cc(CNCc3c[nH]c4ccc(Br)cc34)on2)cc1C(F)(F)F is 5.21

The value of logP measured for the compound Cc1ccc(-c2cc(CNCc3c[nH]c4ccccc34)on2)cc1 turned out to be 3.89

====

Experiment: Partition coefficient, logP of the compound
Assay type: physicochemical
Details: octanol/water
# label = Yes if logP >= 4 else No

Req: Quick check: does O=[N+]([O-])c1ccc(-c2cc(CNCc3c[nH]c4ccccc34)on2)cc1 have logP greater than or equal to 4?
Resp: No

Req: Does the reported logP for Cc1ccc(-c2cc(CNCc3c[nH]c4ccc(C)cc34)on2)cc1 fall at or above the 4 mark?
Resp: Yes

Req: Reported logP reaches at least 4 for Brc1ccc2[nH]cc(CNCc3cc(-c4ccccc4)no3)c2c1 ?
Resp: Yes

Req: // inclusive: logP at least 4? input: Cc1ccc2[nH]cc(CNCc3cc(-c4ccccc4)no3)c2c1
Resp: No

Req: Say whether Cc1ccc(-c2cc(CNCc3c[nH]c4ccc(Br)cc34)on2)cc1 shows logP of 4 or more.
Resp: Yes

====

Experiment: Partition coefficient, logP of the compound
Assay type: physicochemical
Details: octanol/water
Assign logP to each entry below.
Please state the value as a number alone, without comment.

Lab book: logP of Fc1ccc(-c2cc(CNCc3c[nH]c4ccccc34)on2)cc1C(F)(F)F noted as 4.43

The reported value for O=[N+]([O-])c1ccc(-c2cc(CNCc3c[nH]c4ccc(Br)cc34)on2)cc1 in terms of logP is 4.19

Entry under test: COc1ccc(-c2cc(CNCc3c[nH]c4ccc(Br)cc34)on2)cc1 . Its logP was 4.28

The value of logP measured for the molecule c1ccc(-c2cc(CNCc3c[nH]c4ccccc34)on2)cc1 turned out to be 3.44

====

Experiment: Inhibition of human type 2A secretory PLA2 using diheptanoyl thio-PC as substrate after 15 mins by ELISA
Lab note: compare IC50 with 20 µM, writing YES if less and NO if equal or more.

Req: Consider the compound COc1ccc(-c2cc(CNCc3c[nH]c4ccc(Br)cc34)on2)cc1 . Is its IC50 strictly less than 20 µM?
Resp: NO

Req: Find out if reported IC50 for C[C@H]1[C@H](C)CC[C@]2(C(=O)O)CC[C@]3(C)C(=CC[C@@H]4[C@@]5(C)CC[C@H](O)C(C)(C)[C@@H]5CC[C@]43C)[C@H]12 is less than 20 µM
Resp: YES

Req: # check: IC50 < 20 µM for Brc1ccc2[nH]cc(CNCc3cc(-c4ccccc4)no3)c2c1
Resp: NO

Req: Hello, is IC50 of the following compound strictly smaller than 20 µM? O=[N+]([O-])c1ccc(-c2cc(CNCc3c[nH]c4ccc(Br)cc34)on2)cc1
Resp: NO

Req: Say whether its IC50 is strictly beneath 20 µM. Entry: Cc1ccc(-c2cc(CNCc3c[nH]c4ccc(Br)cc34)on2)cc1
Resp: NO

Req: State whether 20 µM exceeds IC50 recorded for Cc1ccc(-c2cc(CNCc3c[nH]c4ccccc34)on2)cc1 .
Resp: NO

Data provenance is ChEMBL document CHEMBL3792382.
